Test system: UACC-257 melanoma
method_description: NCI tumour cell line growth inhibition, 48 h
parameter: TGI

Input: Please report the recorded TGI for COc1c(O)c(OC)c(C(=O)/C=C/c2ccccc2)c(O)c1OC .
Output: > 100 µM

Input: Request: COc1cc(N=Nc2cccc(S(=O)(=O)O)c2)c(C)cc1N=Nc1ccc(/C=C/c2ccc(N=[N+]([O-])c3ccc(/C=C/c4ccc(N=Nc5cc(C)c(N=Nc6cccc(S(=O)(=O)O)c6)cc5OC)cc4)c(S(=O)(=O)O)c3)cc2S(=O)(=O)O)cc1
Output: > 100 µM

Input: Request: CC(=O)O[C@]12CCCCCCC1C1(O)C(O)CCC[C@H]12 (stereo not given in full)
Output: > 100 µM

Input: Request: CC(=O)N[C@@H](Cc1ccc(O)cn1)C(=O)NCc1ccc2c(c1)OCO2
Output: > 100 µM

Input: Request: Cc1nnc2n1N=C(CC(=O)c1ccc(O)cc1O)CN2N
Output: > 100 µM

Input: Request: CC1=C(C#N)C(N)=C2C(C)=C(C#N)C(N)=C12
Output: > 100 µM

Input: Request: COc1ccc(S(=O)(=O)N/N=C/C(=O)O)cc1
Output: > 1250 µM

Input: Request: C[C@@H](NC(=O)Cc1cc(F)cc(F)c1)C(=O)N[C@@]1(C)N=C(c2ccccc2)c2ccccc2N(C)C1=O
Output: > 100 µM

Input: Request: CC(=O)NC1C(OCc2ccccc2)OC(COC(=O)CCCCCCCCCCNC(=O)c2cccc3c(=O)c4ccccc4[nH]c23)C(O)C1OC(C)C(=O)NC(C)C(=O)NC(CCC(N)=O)C(N)=O (stereo not given)
Output: > 100 µM

Input: Request: Cc1ccc(S(=O)(=O)C(C#N)c2nc3ccccc3nc2-n2cccn2)cc1 (stereo not given)
Output: > 100 µM

Input: Request: O=C(c1ccccc1F)c1c(NCc2ccccc2)c(=O)c1=O
Output: > 100 µM

Input: Request: CCC1OCCN1C(C)C (stereo not given)
Output: > 100 µM

Input: Request: Oc1cccc(-c2nc3ccccc3s2)c1
Output: > 100 µM

Input: Request: OC(CC(c1ccccc1)c1ccc(Cl)cc1)c1ccc(Cl)cc1 (stereo not given)
Output: > 100 µM

Input: Request: COc1ccccc1Cn1cc2c(c1)-c1oncc1CC2
Output: > 63.6 µM

Input: Request: CC1=CC2=C(C)C3(CC3)[C@@](C)(O)C(=O)C2=C1
Output: 0.578 µM

Input: Request: COc1cn2c(cc1=O)COc1ccc(-c3ccccc3)cc1-2
Output: > 87.1 µM

Input: Request: CC1(CC(=O)O)OC2CCCCCC2O1 (stereo not given) (tested in a mixture with another compound)
Output: > 100 µM

Input: Request: Cc1cs/c(=N\C(P(=O)(O)O)P(=O)(O)O)n1C
Output: > 100 µM

Input: Request: Cc1nc2c(n1Cc1ccc(Cl)cc1)C(=O)c1ccccc1C2=O
Output: > 75 µM

====

System: CCRF-CEM leukemia
method_description: NCI tumour cell line growth inhibition, 48 h
For each entry below, report its TGI value.

Input: Please report the recorded TGI for c1ccc2c(c1)CCCc1cc3ccccc3nc1-2 .
Output: > 100 µM

Input: Request: Cc1cccc(NC(=O)CC(=O)N2N=C(N3c4ccccc4Sc4ccccc43)CC2c2ccccc2)c1 (stereo not given)
Output: > 100 µM

Input: Request: CCOC(=O)c1[nH]c2c(c1C)-c1[nH]c(=O)c(S(=O)(=O)c3ccccc3)cc1SC2
Output: > 100 µM

Input: Request: CC1=NN(c2ccc(C)cc2)C2(C1)SCC(=O)N2c1nc2ccccc2s1 (stereo not given)
Output: 28.4 µM

Input: Request: [N-]=[N+]=NC1(c2ccccc2)C(=O)Nc2ccccc2C1=O (stereo not given)
Output: > 100 µM

// provenance: PubChem BioAssay (NCI)
